test: soluble on expression in E. coli; label from the status in PepcDB or PDB records
measurement.kind: soluble on expression in E. coli

MAHHHHHHMGDFALISMNGDRVFISLDPVFTSQSLWLQAAEGLGEREGVVPIASTETLHNLVEYMAFQAKRMAGVAEGECKGGQTVTLPISCTTCSGSGGLGYDVHSLLPDHDIAFLDRFGGTGGVWEVEQQEKLMELMATADFVGHGRLSRLCAVYISCRLMSATESDILSWFSVCGDRCGGVASADPEADDGNRAGERVLRDAERLRILNQMRKYIEIED | not soluble
MKAKDVKLLARYLEMLKDPNIIKTQDVFTVIRYISYNSYGKTMAWNWIQLNWDYLVSRFTINDRYLGRIVTIAEPFNTELQLWQMQSFFAKYPNAGAGAKPREQVLETVKNNIEWLNVNRQSIREWFASLP | not soluble
MGNDKRVRKPEWLKISIGANERYTETKRIVESHCLHTICSSGRCPNMGECWGKGTATFMIAGDICTRSCKFCNTQTGRPLPLDPDEPTHVAESIALMKLSHAVITSVDRDDLPDLGAAHWAQTIREIKRLNPETTTEVLIPDFQGRKELVDQVIKACPEIISHNMETVKRISPQVRSAANYHTSLEVIRQIAESGITAKSGIMVGLGETPAEVEELMDDLISVGCKILTIGQYLQPTHKHFPVAAYITPEQFAVYKETGLKKGFEQVESAPLVRSSYHAEKHIRFNNK | not soluble
MVAGLTNGELIAPMTYEETMTSDFFEAWFQKFLLPTLTTPSVIIMDNARFHRMGKLELLCEEFGYKLLPLPPYSPEYNPIEKTWAHIKKHLKKVLPSCNTFYEALLSCSCFNLEHHHHHH | not soluble
SLSIYSFSQITRSLFLSNGVAANDKLLLSSNRITAIVNASVEVVNVFFEGIQYIKVPVTDARDSRLYDFFDPIADLIHTIDMRQGRTLLHCMAGVSRSASLCLAYLMKYHSMSLLDAHTWTKSRRPIIRPNNGFWEQLINYEFKLFNN | not soluble
MGHHHHHHSHMTKLPPIEQLLPHDKPMILVDRAMDIQQDTIHCQVDIAEHNPFFDSASQTVPAYVGIEFMAQSVAAWSGYHALMKEQAPPIGFLLGSRRYTSECDAFSRGQMLDVYAEKVMEDNGMAVFSARIELQGTVVATCQLNVYVPSEEKLQEMKIRSQQ | not soluble

Query: Requested read-out: soluble on expression in E. coli. Entry: PKDDRLSAWKFWALYAADTGGALRIDAGAVAAVTAGGNSLLAVGITEVIGDFHAGEIVEILGPEGEIIGRGEVAYDSAVLITMLGKQTAQLPEGLQRPVVHADYLSDYASRA
Reply: not soluble

Query: Continue with MEYGCQPNVLKKTILKMVKRRIHVEGAKKAVNEALLNSQAKAAEEICRIAYESPGGVVFLGAPTGAGKTEVFMAPLLASFASKRPIAARGFLVEPMHSLIKAMVDRLKTSIETLGVSEDHGETVQPTFLYTAPITVTTPDTYFYGFAASRVYRILTHEGVETGRFSMPVGLQATSYTVFDEAHLVQDEVFLSPRLLSLVVAALARAGGLIVVSSATLPSYYKTVIREKLGDWRVEEV
Reply: not soluble

###

assay: soluble on expression in E. coli; label from the status in PepcDB or PDB records
measurement.kind: soluble on expression in E. coli

Look over these answered cases.
SGQKVTGGIKTVDMRDPTYRPLKQELQGLDYCKPTRLDLLLDMPPVSYDVQLLHSWNNNDRSLNVFVKEDDKLIFHRHPVAQSTDAIRGKVGYTRGLHVWQITWAMRQRGTHAVVGVATADAPLHSVGYTTLVGNNHESWGWDLGRNRLYHDGKNQPSKTYPAFLEPDETFIVPDSFLVALDMDDGTLSFIVDGQYMGVAFRGLKGKKLYPVVSAVWGHCEIRMRYLNGLDPEPLPLMDLCRRSVRLALGRERLGEIHTLPLPASLKAYLLYQ | soluble
MSEIKTDDPKRGIKLRGADKTARIPIKVVPLQEKLKKPEWIRAKLPSRKFFEIKDILREQKMHTVCEEASCPNIGECFSKGTATFMIMGDICTRRCPFCDVGHGRPNMLDPDEPRNLAESVKAMNLRYVVITSVDRDDLRDGGAQHFADCIKAIRETSPNTKIEILVPDFRGRLDIALKILAETPPDVMNHNLETHPSLYRKARPGANYQHSLDLLKRYKEMMPHIPTKSGIMVGLGETDEDVREIMRDMRAHNIEMITIGQYLQPSDGHLPVLRYVTPEQFKIFEKEAYELGFSNAAIGAMVRSSYHADEQAAEALRESHGGCGHH | not soluble
MGNEEEKMNADIFSYEGEGIQCVYDNKNWVMCIKNWKPNNDIENIRYLEVHHATDEQFVLLKGKAVLLAAVKADGACRIDVIPMEPYKVYNIPQGIWFNTITQKDTKLVYVQDAATTAENSEYCDMTQEELNEVKEKASACLD | not soluble
MAHHHHHHMKAFFIGKREYRRVLSLQETIFNAKIARQVSVRRGASKLPLLPDVVILVEHSTPVYTIGRRDTTHGLPPHCSIDVVKTRRGGGITYHGPGQLTMYPIANIQLLWKDCTAEKPRSPIEWFSWALEEAMIQTAAMYHIPTHRFKTGVWADQYKDIPAQKLGAVGLQLGSWVSMHGAGLNVASDLHFFDDIIMCELPDRRATSLSNEMQHRGVAESPPLVQATAPVLLQKFIESLHQQPSCAAPQLVDLSADADWHERVIDTAGISTP | not soluble
MKQGKFSVFLILLLMLTLVVAPKGKAEAASSGWQPVSGISGCKIRVITDAYTYTKSATSIDAYAETNGKCGKLNYKSFGVSIVEGGDIGPQYSGYFSSRTPTKKFYFSKLPKPTGTPWAVGLSVYKGKAKGAAFVYINPQKRLEHHHHHH | not soluble

Please look at the following sequence next.
Query: Requested read-out: soluble on expression in E. coli. Entry: MSKQDEVIVVGKFGASYGIRGWLKVVSFTDQPESIFDYKPWLIQVKGEWVEFSVESWKRHKGLVCKLKGLDVREEAQTYTNLEIAVKADALPELSEDEFYWRELFGMEVVTTKGYALGVVDDIFETGSNDVLVVKANLKDAFGKKERLIPFIDEQVIKLIDREAQRIEVDWDPGFLEHHHHHH
Reply: soluble

###

assay: soluble on expression in E. coli; label from the status in PepcDB or PDB records
measurement.kind: soluble on expression in E. coli

Look over these answered cases.
MKFFSNPKQEAQTHFHLHKDKETMSVSAIFGTGIVTVAASPVLRQFQVPKLGNGGGLGMVIECSSRPQKKSTAHHRKTRPKKTQPWDIKRKPTVYAPLPPLPAEWSPFTLASDDGGAATAAGDLVSGAA | not soluble
MNLMLCCTPLQVLIARKIIELHPNEQFFGVMFGGVWDKKRTLYASKLAEVCSDSMNIDTGKDLKGFDFLKLMRQLKNKITHKGFDKVFLANLNSLWLQTYLSHVSFKELYTFDDGSDNIFPHPNLLREPGTFKYKLIKAFIGDKYSVNKLFKKIKKHYTVYPNYKNIVSNIEPISLWDNQIDCEIDGEVSFFIGQPLLNTKEENISLIKKLKDQIPFDYYFPHPAEDYRVDGVNYVESELIFEDYVFKHLSNKKLFIRSSVLLHLIYVILMKSVLLERVFQDGNSVTIHFQTLDRFIRKFLEHHHHHH | not soluble
MGSDKIHHHHHHMGHSLLFAVDVRPPHDVGVDGPRTASMCQNEVVADLKQRRPSVEQIIRIGIDTSKHVFQLHGVNAAEEPVLRKKLRRKEVVALFEKLSPTVVAIEACGGSHHWARLLQSFGHEVKLIPPQYVKPYVKRGKNDTADAEALCEAMSRPTMRFVPVKTAKQQAALMLVGLRDRLIRNRTQLANAIRGYAAEYGLIAARGMCKIEPLLERIAADKMLPDLARELFALHAKEYAQLQTQLKDVDAKLMAWHRAEACSQRLAQIPGVGPIGASLLVMKTPAPETFRSARHFAAWLGLTPKDHSTAGRVRLGVITRAGDEALRSVLVAGATAVIRHVRRGRGAVSPWLVDLLKRKPPKLAAVALANKIARIAWKLMVSGEIYGAKPMPPASARAA | not soluble
MSLSKASLQEMAVKYIAEQIGEHDSEQIHLSALPLDSRIPDRACSTTPDIISSSEPPFNRQITIQVKCDDPQSWAQYVHIKVLKMAPVVVTTDNIARGEVITSAHITVEMKPTHFVRVQYQDDPKALIGSRSKRNIREGMPILLNQICMVCKGDAINIYASTKGLQIKTTGVALEDGTLGEQILVENKKTGKVLNARVDGVESVQVNIEGHHHHHH | not soluble
MGSDKIHHHHHHMVKLPPLSLYIHIPWCVQKCPYCDFNSHALKGEVPHDDYVQHLLNDLDNDVAYAQGREVKTIFIGGGTPSLLSGPAMQTLLDGVRARLPLAADAEITMEANPGTVEADRFVDYQRAGVNRISIGVQSFSEEKLKRLGRIHGPQEAKRAAKLASGLGLRSFNLDLMHGLPDQSLEEALGDLRQAIELNPPHLSWYQLTIEPNTLFGSRPPVLPDDDALWDIFEQGHQLLTAAGYQQYETSAYAKPGYQCQHNLNYWRFGDYIGIGCGAHGKVTFPDGRILRTTKTRHPRGFMQGRYLESQRDVEATDKPFEFFMNRFRLLEAAPRVEFIAYTGLCEDVIRPQLDEAIAQGYLTECADYWQITEHGKLFLNSLLELFLAE | not soluble

Query: Requested read-out: soluble on expression in E. coli. Entry: MNNGEGEVMDLRDIDLNLLVVFNQLLLDRSVSTAGEKLGLTQPAVSNSLKRLRTALNDDLFLRTSKGMEPTPYALHLAEPVIYALNTLQTALTTRDSFDPFASTRTFNLAMTDIGEMYFMPPLMEALAQRAPHIQISTLRPNAGNLSEDMESGAVDLALGLLPELQTGFFQRRLFRHRYVCMFRKDHPSAKSPMSLKQFSELEHVGVVALNTGHGEVDGLLERAGIKRRMRLVVPHFIAIGPILHSTDLIATVPERFAVRCEVPFGLTTSPHPAKLPDIAINLFWHAKYNRDPGNMWLRQLFVELFSEAHHHHHH
Reply: soluble

Query: Continue with MSNLRIAYDRLRSMSRTEENPTVQAMQIALHIPKNDPPARSEILQAAAQAVVACCLSEESVTDEWYGNRLQQWYDHRIRKVARRGRNAAWERVTTLPGVSSVSGSAEARAFVPGPVDSVDPLLKKLQISHTDVPFDSPADPTEGPVLYVDRGLGMSVGKTAAQVGHGSMLLAAAQPFEWVERWADQGYRLSVREVDSEVFRKAAEQPGAVHVIDAGFTEVAPSSLTVVALPMLLF
Reply: not soluble

Data origin, for the record: the DeepSol protein solubility set
